System: Saccharomyces cerevisiae
procedure.summary: protein stability index of tFT-peptide fusion (C-terminal peptide) (PSI (0-1 scale)); higher = more stable (slower turnover);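 also: PSI is a weighted mean of sequencing reads over stability bins, variants kept only with over 10 reads, mCherry proximal and sfGFP distal, peptide attached via GGGS linker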
study.conditions: genetic background: cdc34-1; temperature: 37 C
Would you mind labelling by protein stability index? At or over 0.6 is yes, under is no.

1) LHLSSFVILLEL | no
2) MALAVRVVLCGA | no
3) ESFIKFALYIVN | no
4) GLFGFASPPPPS | yes
5) HRARILLIRICP | no
6) NCVDRFKGQKRM | yes
7) GSVHLTKERHLV | yes
8) WVFYAVRWRTWN | no
9) FSLLTWPFVFLV | no
10) GFFLLSFLFFVR | no
11) VARWVYALGLLC | no
12) ASLSSSRPPLLP | yes
13) TYSVIPSLALLP | yes
14) GWVVVVCGVCCG | no
15) SGRFRFVLLGLV | no
16) FLSRVVLVVLLV | no
17) FLGPMRVLVSSV | no

----------
Tested on: Saccharomyces cerevisiae
procedure.summary: protein stability index of tFT-peptide fusion (C-terminal peptide) (PSI (0-1 scale)); higher = more stable (slower turnover)
study.conditions: genetic background: wild type; temperature: 30 C
value.kind: protein stability index

1) VEERGCCGEAEG | 0.727
2) FQGALFTEVVES | 0.716
3) SSSLLFVLGPSW | 0.715
4) AQAPVDPTPVPL | 0.658
5) CASLATAPPTSQ | 0.728
6) VASSGRSPTPTR | 0.755
7) GGRSLYAILCAV | 0.321
8) PPPPPPRRSSPP | 0.681
9) GVLVGLGWGWGG | 0.713
10) YSLVKITHGRKK | 0.684
11) LLTGCVPVLIRK | 0.707
12) FSFFLYFFLLLF | 0.315
13) SGVAAPVRPRSV | 0.854
14) KGQNLAVTRERE | 0.7
15) LWFPLCRLVRRD | 0.682
16) GLLTFPPNRSGG | 0.67
17) DGRLNVCCYPSC | 0.689
18) SASLPSPCPDFG | 0.67
19) APPPLFLIVLHL | 0.424
20) SFAHIVSLPVSM | 0.657
21) FIRDKQTSFDIR | 0.68
22) GSGGLRVVCLLM | 0.653
23) QNKNPNRTEKSK | 0.701
24) DIGGTDYDPAIS | 0.714
25) PRIVLFLRLHSN | 0.21
26) KKKMINQKKKKD | 0.649
27) FWHGRCPGLYLV | 0.27
28) GSSGQPDSPPIS | 0.684
29) PRLCLVAGRCRS | 0.614
30) PPPPFPPPSPPL | 0.715
31) RCSNWFVGFCPF | 0.733
32) YLSPPLLPSFPL | 0.728
33) MSSGGSIYMVRT | 0.723
34) GSWRVLVLLGEL | 0.636
35) ARHPLCLPVLLT | 0.548
36) RLRPRRNMIDHA | 0.724
37) VSFFCLICRVYP | 0.434
38) VLAHCLFRCEKN | 0.606
39) NCEVYVGLVLAD | 0.597
40) QKRIALNSQKNT | 0.688
41) GGGRFRRDRTYE | 0.712

Just for reference, the supplement of paper PMC10724198 is where these values come from.
